# System: HT-1080
# assay_explanation: Inhibition of RSL3-induced ferroptosis in human HT-1080 cells assessed as cell viability incubated for 24 hrs by CCK8 assay
# Format: functional, cell-based
# condition_parameters: HT-1080, 24 h
pEC50: −log10 of the molar value.
observed_property: pEC50

Study these solved cases before continuing.
molecule_smiles	pEC50
Nc1c(O)cccc1-c1nnc(S)o1	6.44
COc1ccc(/C=N/NC(=O)c2cccc(O)c2N)cc1	7.39
CCCOC(=O)c1cccc(O)c1N	6.52

P. CC(C)COC(=O)c1cccc(O)c1N
Q. Cc1ccc(/C=N/NC(=O)c2cccc(O)c2N)cc1
Sorting ascending by pEC50, which comes first: P or Q ? Choose, then provide that item's label.
Q
(Q: 5.58, P: 6.80)

###

# Tested on: HT-1080
# assay_explanation: Inhibition of RSL3-induced ferroptosis in human HT-1080 cells assessed as cell viability incubated for 24 hrs by CCK8 assay
# Format: functional, cell-based
# condition_parameters: HT-1080, 24 h
pEC50: −log10 of the molar value.
observed_property: pEC50

Study these solved cases before continuing.
molecule_smiles	result
NNC(=O)c1cccc(O)c1N	< 6.00
Nc1c(O)cccc1C(=O)N/N=C/c1ccc(C(=O)O)cc1	< 6.00

Please look at the following molecule next.
If you can, please state the reported pEC50 value of Nc1c(O)cccc1-c1nnc(SCC(=O)O)o1 .
< 6.00

Cited source for all entries: ChEMBL document CHEMBL5506073
